# target_under_test: STAT6 (Homo sapiens, UniProt P42226)
# Construct: stably transfected HaCaT keratinocyte cell line, which expresses NanoLuc luciferase reporter gene under the transcriptional control of the STAT6 responsive promoter; endogenous in cells; host or cells: HaCaT keratinocyte reporter cell line (stably transfected with a NanoLuc reporter)
# Sequence (P42226 whole entry): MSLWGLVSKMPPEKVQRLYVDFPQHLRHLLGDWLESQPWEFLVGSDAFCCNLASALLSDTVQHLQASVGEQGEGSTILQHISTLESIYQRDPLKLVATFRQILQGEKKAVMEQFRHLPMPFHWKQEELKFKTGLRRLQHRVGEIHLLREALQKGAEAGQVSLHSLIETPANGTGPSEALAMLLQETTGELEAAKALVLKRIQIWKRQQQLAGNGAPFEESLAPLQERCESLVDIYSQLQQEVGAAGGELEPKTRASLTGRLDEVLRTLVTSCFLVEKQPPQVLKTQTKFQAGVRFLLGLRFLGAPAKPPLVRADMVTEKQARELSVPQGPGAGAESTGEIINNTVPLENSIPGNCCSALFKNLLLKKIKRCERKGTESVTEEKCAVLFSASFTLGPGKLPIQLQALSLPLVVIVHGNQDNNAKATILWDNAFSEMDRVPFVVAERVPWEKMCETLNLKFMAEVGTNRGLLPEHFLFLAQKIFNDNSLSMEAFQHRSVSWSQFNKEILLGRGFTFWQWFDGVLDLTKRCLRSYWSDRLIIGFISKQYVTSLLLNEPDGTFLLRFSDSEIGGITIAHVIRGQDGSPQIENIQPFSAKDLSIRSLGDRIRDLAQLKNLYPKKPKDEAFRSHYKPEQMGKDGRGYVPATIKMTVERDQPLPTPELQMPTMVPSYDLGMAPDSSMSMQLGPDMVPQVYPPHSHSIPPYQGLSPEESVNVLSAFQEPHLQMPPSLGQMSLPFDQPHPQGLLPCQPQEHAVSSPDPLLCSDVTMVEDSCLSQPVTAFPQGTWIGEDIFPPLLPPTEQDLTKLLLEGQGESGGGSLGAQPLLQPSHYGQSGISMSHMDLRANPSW
# test_details: STAT6 Reporter Luciferase Assay (IL-13 stimulated HaCaT keratinocyte NanoLuc reporter cells)
# Type: cell-based
# condition_description: IL-13 stimulated HaCaT STAT6 NanoLuc reporter cells; read-out: Reporter EC50
# Source text: Pharmacological measurements of STAT6 transcriptional activity through the IL-13-IL-13 receptor/IL-4 receptor pathway were made with a stably transfected HaCaT keratinocyte cell line, which expresses NanoLuc luciferase reporter gene under the transcriptional control of the STAT6 responsive promoter for IL-13Ra2. The readout of the STAT6 activity utilized Promega Nano-Glo Luciferase assay kit. […]
measured_metric: EC50 (nM)
Express the result in nM but write the number alone.

// query EC50 value for entry `CC(C)n1nc(C(=O)NCc2ccc(NC(=O)N3CCN(C)CC3)cc2)c2c1[C@@H](C)CN(c1ccc(-n3ccccc3=O)cn1)C2` 1

// query EC50 value for entry `CC(C)n1nc(C(=O)NCc2ccc(NC(=O)N(C)C)cc2)c2c1CCN(c1ccc(C(=O)N3CCn4cncc4C3)cn1)C2` 105

// query EC50 value for entry `CC(C)n1nc(C(=O)NCc2ccc(NC(=O)N(C)C)cc2)c2c1CCN(c1ccc(C(=O)N3CCc4nocc4C3)cn1)C2` 49

// query EC50 value for entry CC1CN(c2ccc(C(=O)N(C)C)cn2)Cc2c1nn1c2C(=O)N(Cc2ccc(NC(=O)N(C)C)cc2)CC1 (single isomer, unassigned) [Example 280] 10

// query EC50 value for entry `CC(C)n1nc(C(=O)NCc2ccc(NC(=O)N3CCNCC3)c(F)c2)c2c1[C@@H](C)CN(c1ccc(C(=O)N(C)C)cc1)C2` 2

// query EC50 value for entry CC(C)n1nc(C(=O)NCc2ccc(NC(=O)N(C)C)cc2)c2c1CCN(c1ccc(C(=O)N3C[C@H]4CCO[C@H]4C3)cn1)C2 (racemic) 606

// query EC50 value for entry CC(C)n1nc(C(=O)NCc2ccc(NC(=O)N3CCN(C)CC3)cc2)c2c1C(C(F)(F)F)CN(c1ccc(C(=O)N(C)C)cc1)C2 (single isomer, unassigned) [Example 702] 10

// query EC50 value for entry CCn1nc(C(=O)NCc2ccc(NC(=O)N(C)C)cc2)c2c1C(C)CN(c1ncc(C(=O)N(C)C)cn1)C2 (racemic) 1

// query EC50 value for entry `CC(C)n1nc(C(=O)NCc2ccc(NC(=O)N(C)C)cc2)c2c1CCN(c1ccc(C(=O)N3CCn4nncc4C3)cn1)C2` 282

// query EC50 value for entry `CCn1nc(C(=O)NCc2ccc(NC(=O)N(C)C)cc2)c2c1C(C)(C)CN(c1ccc(C(=O)N(C)C)cn1)C2` 2

// query EC50 value for entry `CC(C)n1nc(C(=O)NCc2ccc(NC(=O)N(C)C)cc2)c2c1CCN(c1ccc(C(=O)N3CCc4cnccc4C3)cn1)C2` 82

// query EC50 value for entry `CC(C)n1nc(C(=O)NCc2ccc(NC(=O)N3CCN(C)CC3)cc2)c2c1[C@@H](C)CN(c1ccc(C(=O)N3Cc4cccnc4C3)cc1)C2` 0.4

// query EC50 value for entry COCC(C)n1nc(C(=O)NCc2ccc(NC(=O)N(C)C)cc2)c2c1[C@@H](C)CN(c1ccc(C(=O)N(C)C)cn1)C2 (mixture of isomers) 1

// query EC50 value for entry `CC(C)n1nc(C(=O)NCc2ccc(NC(=O)N(C)C)cc2)c2c1CCN(c1ccc(C(=O)N3CCc4cc(C#N)ccc4C3)cn1)C2` 22

// query EC50 value for entry CCC1Cc2c(c(C(=O)NCc3ccc(NC(=O)N(C)C)cc3)nn2C)CN1c1ccc(C(=O)N(C)C)cn1 (single isomer, unassigned) [Example 270] 7

// query EC50 value for entry `CNC(=O)c1ccc(CNC(=O)c2nn(C(C)C)c3c2CN(c2ccc(C(=O)N(C)C)cc2)C[C@@H]3C)cc1` 4

// query EC50 value for entry `COc1cc(NC(=O)N2CCNCC2)c(F)cc1CNC(=O)c1nn(C(C)C)c2c1CN(c1ccc(C(=O)N(C)C)cc1)C[C@@H]2C` 75

// query EC50 value for entry `CCn1nc(C(=O)NCc2ccc(NC(=O)N(C)C)cc2)c2c1[C@@H](C)CN(c1ccc(C(=O)N3Cc4cccnc4C3)cn1)C2` 0.4

// query EC50 value for entry `CCn1nc(C(=O)NCc2ccc(NC(=O)N(C)C)cc2)c2c1C1(CC1)CN(c1ccc(C(=O)N(C)C)cn1)C2` 5

// query EC50 value for entry `CC(C)n1nc(C(=O)NCc2ccc(NC(=O)N(C)C)cc2)c2c1CCN(c1ccc(C(=O)N3CC4(CCO4)C3)cn1)C2` 1280

// query EC50 value for entry `CC(C)n1nc(C(=O)NCc2ccc(NC(=O)N3CC4(CN(C)C4)C3)c(F)c2)c2c1[C@@H](C)CN(c1ccc(C(=O)N(C)C)cc1)C2` 5

// query EC50 value for entry CC(C)n1nc(C(=O)NCc2ccc(NC(=O)N(C)C)cc2)c2c1C(C(F)F)CN(c1ccc(C(=O)N(C)C)cn1)C2 (single isomer, unassigned) [Example 494] 0.5

// query EC50 value for entry `CC(C)n1nc(C(=O)NCc2ccc(NC(=O)N(C)C)cc2)c2c1CCN(c1ccc(C(=O)N3CCc4cccnc4C3)cn1)C2` 17

// query EC50 value for entry `CC(C)n1nc(C(=O)NCc2ccc(NC(=O)N3CC[C@@H](C#N)C3)cc2)c2c1CCN(c1ccc(C(=O)N(C)C)cn1)C2` 16

// query EC50 value for entry `CC(C)n1nc(C(=O)NCc2ccc(NC(=O)N(C)C)cc2)c2c1C[C@H](C)N(c1ncc(C(=O)N(C)C)cn1)C2` 3

Data origin: patent US20250320213A1
